meta.source: patent US20240239878A1

Kindly state Top MFI for each of the entries shown.
# assay.system: T1, Cynomolgus monkey DLL3 on HEK293 cells (HEK293-cyno DLL3) (Cynomolgus monkey, UniProt Q9NYJ7 27-618 (human entry))
# T1 chain: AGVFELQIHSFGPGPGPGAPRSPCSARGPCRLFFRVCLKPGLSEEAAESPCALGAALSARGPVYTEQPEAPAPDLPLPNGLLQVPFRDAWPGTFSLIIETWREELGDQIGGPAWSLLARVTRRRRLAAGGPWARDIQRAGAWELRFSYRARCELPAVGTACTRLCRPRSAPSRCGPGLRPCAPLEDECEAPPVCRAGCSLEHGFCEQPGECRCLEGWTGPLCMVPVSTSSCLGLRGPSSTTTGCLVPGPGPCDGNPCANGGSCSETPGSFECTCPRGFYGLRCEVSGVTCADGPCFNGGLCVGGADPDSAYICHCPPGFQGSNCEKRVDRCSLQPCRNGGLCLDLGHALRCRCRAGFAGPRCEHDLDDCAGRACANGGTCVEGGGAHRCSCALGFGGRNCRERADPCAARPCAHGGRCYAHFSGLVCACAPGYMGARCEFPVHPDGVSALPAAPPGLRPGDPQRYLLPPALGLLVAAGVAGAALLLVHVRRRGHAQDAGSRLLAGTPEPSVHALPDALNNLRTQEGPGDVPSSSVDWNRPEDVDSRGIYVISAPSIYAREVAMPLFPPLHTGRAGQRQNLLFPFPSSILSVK
# protocol.details: flow cytometry, HEK293-cyno DLL3 cells
Answers are plain numbers, in MFI.

Examples from the recorded data:
45E4D7 mouse hybridoma-derived anti-DLL3 chimeric antibody (antibody, V domains shown) VH: QVQLQQPGAELVKPGTSVKLSCKASGYTFTSHWITWVKQRPGQGLEWIGDIYPISGSTNNNEKFRNKATLTVDTSSSTAYMQLSSLTSEDSAVYFCAKIITVGGAYVMDYWGQGTSVTVSS VL: DIVLTQSPVTLSVTPGDSVSLSCRASQSVRNNLHWYQQKSHESPRLLIKYVSQSISGIPSRFSGSGSGTDFTLSINSVETEDFGVYFCQQSNSWPLTFGAGTKLELK; 454
26C4D2 mouse hybridoma-derived anti-DLL3 chimeric antibody (antibody, V domains shown) VH: QVQLQQPGAELVKPGASVKLSCKASGYSFTSYWMHWVKQRPGQGLEWIGMIHPTLGDTNYNEKFKSKATLTVDKSSSTAYMELSSLTSEDSAVYYCARLGSLSMMDYWGQGTSVTVSS VL: DIQMTQTTSSLSASLGDRVTISCSASQGISNYLNWYQQKPDGTVKLLIYYTSSLHSGVPARFSGSGSGTDYSLTISNLEPEDIAIYYCQQYSKFPYTFGGGTKLEIK; 421
46A5A4 mouse hybridoma-derived anti-DLL3 chimeric antibody (antibody, V domains shown) VH: QVQLQQSDAELVKPGASVKISCKVSGYTFTDHTIHWMKQRPEQGLEWIGYIYPRDGYTMYNEKFKGKATLTADKSSSTAYMQLNSLTSEDSAVHFCARAFHALDYWGQGTSVTVSS VL: DIQMTQTTSSLSASLGDRVTFTCSASQGISNYLNWYQQKPDGTIKLLIYYTSSLHSGVPSRFSGSGSGTDYSLTISNLEPEDIATYYCQQYSKLPYTFGGGTKLEIK; 475
39E2D11-1 mouse hybridoma-derived anti-DLL3 chimeric antibody (antibody, V domains shown) VH: QVQLQQSGAELVKPGASVKMSCKASGYTFISYWITWVKQRPGQGLEWIGDIYPGSGSTTNYNEKFKSKATLTVDTSSSTAYMQLSSLTSEDSAVYYCARETTVGGAYAMDYWGQGTSVTVSS VL: DIVLTQSPATLSVTPGDSVSLSCRASQSINNNLHWYQQKSHESPRLLIKYVSQSISGIPSRFSGSGSGTDFTLTINSVETEDFGMYFCQQTNSWPLTFGAGTKLELK; 445

Consider now this further binder.
INPUT: Which Top MFI value belongs to 48B6D7 mouse hybridoma-derived anti-DLL3 chimeric antibody (antibody, V domains shown) VH: QVQLQQPGAELVKPGTSVKLSCEASGYTFSNYWMQWVRQRPGQGLEWIGMILPNSDITNYNENFQTKATLTVDKSSSTAYMQLSSLTSEDSAVYYCARQARYSAMDYWGQGTSVTVSS VL: DIQMTQTTSSLSVSLGDRVTINCSASQGISNYLNWYQQKPDGTVKLLIYYTSNLHSGVPSRFSGSGSGTDYSLTISNLEPEDIATYYCQHYSKFPYTFGGGTKLEIK ?
OUTPUT: 480
